Measured OD450 values are reported for all entries that follow.
Target: T1, human MSLN-R2-his protein (human, UniProt Q13421 391-486)
T1 construct: also called human MSLN-R2 protein; hMSLN-R2-his; not shown: His tag
T1 sequence (Q13421 other isoform, or with tags, fused parts or gaps): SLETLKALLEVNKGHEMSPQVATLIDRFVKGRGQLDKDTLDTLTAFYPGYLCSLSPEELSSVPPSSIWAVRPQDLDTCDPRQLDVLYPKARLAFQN
Test: ELISA, coated antigen; antibody 1 nM
Give the number; OD450 is assumed, so skip it.

Some solved entries appear below for comparison.
Binder	OD450 [OD450]
S009-F3.7.3 (antibody, human IgG1, kappa, V domains shown, Human-murine chimeric antibody: murine VH/VL on human IgG1 heavy chain constant region and human kappa constant region) VH: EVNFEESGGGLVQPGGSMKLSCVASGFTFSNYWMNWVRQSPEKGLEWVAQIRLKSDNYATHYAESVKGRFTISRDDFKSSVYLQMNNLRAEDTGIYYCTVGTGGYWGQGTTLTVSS VL: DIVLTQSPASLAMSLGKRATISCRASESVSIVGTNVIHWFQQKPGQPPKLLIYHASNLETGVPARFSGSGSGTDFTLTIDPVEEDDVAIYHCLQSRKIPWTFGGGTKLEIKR	0.07
S009-F3.16.1 (antibody, human IgG1, kappa, V domains shown, Human-murine chimeric antibody, human IgG1/kappa constant regions) VH: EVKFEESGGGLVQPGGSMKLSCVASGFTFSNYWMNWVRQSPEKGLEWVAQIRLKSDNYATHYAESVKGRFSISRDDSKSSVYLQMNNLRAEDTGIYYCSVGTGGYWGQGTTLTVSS VL: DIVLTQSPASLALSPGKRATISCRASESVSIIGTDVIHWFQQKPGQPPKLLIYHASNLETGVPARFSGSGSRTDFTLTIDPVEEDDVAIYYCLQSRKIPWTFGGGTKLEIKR	0.06
S009-F3.74.20 (antibody, human IgG1, kappa, V domains shown, Human-murine chimeric antibody, human IgG1/kappa constant regions) VH: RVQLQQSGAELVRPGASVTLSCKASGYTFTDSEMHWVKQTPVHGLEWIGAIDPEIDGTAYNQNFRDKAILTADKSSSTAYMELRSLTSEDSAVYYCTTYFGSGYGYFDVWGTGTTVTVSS VL: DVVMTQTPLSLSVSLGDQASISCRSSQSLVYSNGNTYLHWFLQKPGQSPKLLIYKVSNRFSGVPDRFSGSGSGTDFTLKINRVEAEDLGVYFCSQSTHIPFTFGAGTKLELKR	0.09

Attention now turns to another entry.
Exercise: For the binder S009-F3.38.10 (antibody, human IgG1, kappa, V domains shown, Human-murine chimeric antibody, human IgG1/kappa constant regions) VH: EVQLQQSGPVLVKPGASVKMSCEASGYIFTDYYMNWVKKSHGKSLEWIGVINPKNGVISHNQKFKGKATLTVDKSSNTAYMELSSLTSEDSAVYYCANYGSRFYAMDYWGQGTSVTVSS VL: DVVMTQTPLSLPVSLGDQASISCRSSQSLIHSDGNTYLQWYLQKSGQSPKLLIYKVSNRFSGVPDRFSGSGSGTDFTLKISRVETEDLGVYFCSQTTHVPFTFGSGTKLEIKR , give its measured OD450 value.
Key: 0.21
